Assay: compound binding in COS7 lysate, probe aLAP1, primary screen, cell lysate, small-molecule microarray (AID 1124);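 note: lysate comes from COS7 cells expressing LAP1 and is applied at 0.3 µg/mL; score merges spot fluorescence near 667 nm with signal-to-noise over triplicate slides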
Conditions: probe aLAP1, fluorescence, higher = more signal
reportedProperty: composite z-score

- CCN1C(=O)[C@H]2[C@H]3[C@H](O)[C@H](O)CC(=O)[C@@H]3CC[C@H]2C1=O: 0.335

Please report the measured composite z-score for CCOC(=O)[C@H](CC(C)C)NC(=O)CCC1CC(OC(=O)NCCc2ccc(F)cc2)CC2(CCCC(COC(=O)NCCc3ccccc3OC)O2)O1 (stereo not given in full) 0.419

Please report the measured composite z-score for "O=C1C[C@@H](O)[C@@H](O)[C@@H]2[C@@H]3C(=O)N(C[C@@H]4CCCO4)C(=O)[C@@H]3CC[C@H]12" -0.117

Please report the measured composite z-score for "C[C@H](ON=C1[C@H]2CCn3c(=O)n(-c4ccccc4)c(=O)n3[C@H]2[C@H](O)[C@@H]2O[C@H]12)c1cn([C@H](CO)Cc2ccccc2)nn1" 0.29

Please report the measured composite z-score for "CCOC(=O)NN=C1C[C@@H](O)[C@@H](O)[C@@H]2[C@@H]3C(=O)N(c4ccc(F)cc4F)C(=O)[C@@H]3CC[C@@H]12" 0.196

Please report the measured composite z-score for "O=C1[C@H]2[C@H]3[C@H](O)[C@H](O)CC(=NOCc4ccccc4)[C@@H]3CC[C@H]2C(=O)N1Cc1ccc2c(c1)OCO2" -0.0389

Please report the measured composite z-score for CCOC(=O)[C@H](Cc1ccccc1)NC(=O)CCC1CC(OC(=O)NCc2cccc3ccccc23)CC2(CCCC(COC(=O)NCc3ccccc3)O2)O1 (stereo not given in full) -0.398

Please report the measured composite z-score for "O=C(NN=C1C[C@@H](O)[C@@H](O)[C@@H]2[C@@H]3C(=O)N(C4CCCCC4)C(=O)[C@@H]3CC[C@H]12)OCc1ccccc1" 0.947

Please report the measured composite z-score for "COc1ccc(C#C[C@@H]2C=C[C@H](OC(C)=O)[C@@H](COC(C)=O)O2)cc1" -0.019

Please report the measured composite z-score for "CCCCC#C[C@@H]1C=C[C@H](OC(C)=O)[C@@H](COC(C)=O)O1" -0.406

Please report the measured composite z-score for "CC(C)CON=C1C[C@@H](O)[C@@H](O)[C@@H]2[C@@H]3C(=O)N(c4cccc(Oc5ccccc5)c4)C(=O)[C@@H]3CC[C@@H]12" 0.118

Please report the measured composite z-score for "CC(C)(C)N1C(=O)[C@H]2[C@H]3[C@H](O)C=CC(=O)[C@@H]3CC[C@H]2C1=O" 0.632

Please report the measured composite z-score for "C[C@H]1Cc2c(COc3ccccc3)nc3c(c2CO1)CN(CCOc1ccccc1)CC3" 0.282

Please report the measured composite z-score for CCOC(=O)[C@H](CC(C)C)NC(=O)CCC1CC(OC(=O)NCc2cccc3ccccc23)CC2(CCCC(COC(=O)NCc3ccncc3)O2)O1 (stereo not given in full) 0.218

Please report the measured composite z-score for CCOC(=O)[C@H](CC(C)C)NC(=O)CCC1CC(OC(=O)NCc2ccc3c(c2)OCO3)CC2(CCCC(COC(=O)NCCCN3CCCC3=O)O2)O1 (stereo not given in full) 0.178
